# assay-procedure: HIF-2a reporter inhibitors, primary screen, luminescence, 786-0 RCC cells (AID 624352)
# assay-context: 786-0 RCC cells HIF-2a reporter, luciferase luminescence, overnight; at 18.8 µM; active compounds read high
The campaign covered roughly 360,000 compounds. About 2,600 (0.72%) were called active. Only a selection was taken, and actives are over-represented in it overall.
result-type: inhibition (%)

                                    compound  numeric_result
 0  CNC(=O)NC(=O)C(C)N1CCN(C/C=C/c2ccccc2)CC1 (stereo not given)            16.3
 1  CC(NCC(=O)Nc1ccccc1C(=O)NC1CC1)c1ccccc1Cl (stereo not given)            3.17
 2  CN(C)S(=O)(=O)c1cc(NC(=O)CN2C(=O)NC3(CCCc4ccccc43)C2=O)ccc1Cl (stereo not given)            12.2
 3  OC(c1ccccc1)c1nccn1Cc1ccccc1 (stereo not given)            6.44
 4  CC(OC(=O)/C=C/c1ccccc1)C(=O)NC1CCCCC1C (stereo not given)             8.8
 5      CCOc1ccc(NCCC(=O)c2ccc3c(c2)OCO3)cc1            -129
 6  O=C(NCCC1=CCCCC1)c1ccc(Cl)c([N+](=O)[O-])c1             -91
 7      COCCn1c(SCC(=O)Nc2nc(C)cs2)nnc1C(C)C            9.65
 8  CCN(C(=O)c1cc([N+](=O)[O-])ccc1NCc1cccnc1)c1ccccc1            11.9
 9  CCOc1cc(/C=N/NC(=O)OC)ccc1OCCSc1ccc(Cl)cc1           -1.68
10  Cc1[nH]c(=O)c(C(=O)/C=C/c2ccccc2)c2c1CCCC2            72.5
11  CSC1=NCCN1C(=O)c1ccc(S(=O)(=O)N2CCOCC2)cc1            4.81
12  CCOc1cc(/C=C(/C#N)c2ccc(Cl)cc2)cc(Cl)c1OCC(=O)O            91.8
13  COc1ccc(OC)c2c(N)c(C#N)c(C(F)(F)C(F)(F)F)nc12            8.83
14  CCN(CC)CCCC(C)n1c2nc(=O)[nH]c(=O)c-2nc2cc(Cl)ccc21 (stereo not given)            70.8

----------
# assay-procedure: HIF-2a reporter inhibitors, primary screen, luminescence, 786-0 RCC cells (AID 624352)
# assay-context: 786-0 RCC cells HIF-2a reporter, luciferase luminescence, overnight; at 18.8 µM
The whole screen tested about 360,000 compounds, of which about 2,600 (0.72%) were called active.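 How the source made its calls: active means inhibition of the luminescence signal of 40% or more relative to plate controls, in a single-dose primary screen at 18.75 µM; inactive means the rest.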 Shown is part of a subset that was picked to be rich in actives.
Labels: Y (active), N (inactive)

>>> df
                                    compound  category
 0  O=C(CCl)N(Cc1cccc([N+](=O)[O-])c1)c1cccc(Cl)c1         Y
 1  COc1ccccc1CN1CC(C(=O)NCCc2cn[nH]c2)CCC1=O (stereo unspecified)         N
 2  CC(=O)N(CN1C(=O)C2C3C=CC(C3)C2C1=O)c1cccc(Cl)c1 (stereo unspecified)         N
 3  COc1ccc2c(c1OC)C(=O)OC2Nc1nc(-c2ccccc2)cs1 (stereo unspecified)         Y
 4       O=C(COC(=O)c1cccc(Cl)c1)NC1CCCCCCC1         N
 5  Cc1cccc(NC(=O)C2CCCN(C(=O)NCc3ccccc3)C2)c1C (stereo unspecified)         N
 6    CC(C)Cn1cnc2c(SCc3ccc(Cl)cc3)nc(N)nc21         N
 7  C=CCSc1nnc(N2C(=O)C(O)=C(C(=O)c3ccco3)C2c2ccc(F)cc2)s1 (stereo unspecified)         N
 8  O=C(NCCc1c[nH]c2ccc(Cl)cc12)c1ccc([N+](=O)[O-])cc1         N
 9    NS(=O)(=O)c1cc(Cl)c(Cl)c(S(N)(=O)=O)c1         N
10  Cc1ccc(S(=O)(=O)N(CC(=O)Nc2cccc([N+](=O)[O-])c2)Cc2ccc(Cl)cc2)cc1         N
